Data provenance is PubChem BioAssay AID1211.

biological target: Estrogen receptor (Homo sapiens); assay: displacement of fluorescent estrogen from ERalpha – cell-based, Cos7 ERalpha-GFP, flow cytometry, primary screen (AID 1211); conditions: fluorescent ligand competition, at 10 µM, hits give high values;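 also: 0% = DMSO vehicle wells and 100% = no E2-Alexa633 signal left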
List of inhibition of ligand binding values.
Metric name: inhibition of ligand binding (%)

INSERT INTO assay_data (compound, metric_name, unit_abbrev, observed_result) VALUES
  ('N=c1c[n+](CCc2ccc(O)cc2)[n-]o1', 'inhibition of ligand binding', '%', 7),
  ('CCNCC1(c2ccc(OC)c(OC)c2)CCCC1', 'inhibition of ligand binding', '%', 17),
  ('O=C(O)c1ccc2c(c1)C1C(Cl)C(Sc3ccccc3[N+](=O)[O-])CC1C(c1cccc([N+](=O)[O-])c1)N2 (stereo not given)', 'inhibition of ligand binding', '%', 0),
  ('CC(=O)c1ccc2c(c1)C1C(Cl)C(Sc3ccccc3[N+](=O)[O-])CC1C(c1ccccc1)N2 (stereo not given)', 'inhibition of ligand binding', '%', 69),
  ('COc1cc2c(cc1OC)CC(C)(C)NC2', 'inhibition of ligand binding', '%', 3);
